test system: K4 kissing-loop RNA reporter; test: apparent KD of K4 kissing-loop reporter; higher = weaker reporter binding; conditions: Eterna round: R107; input ligand: arginine 13.2 mM
OUTCOME_MEASURE: apparent KD of K4 kissing-loop reporter (nM)
Numeric answer only, unit nM assumed.

ACGCGCGAGACGGCCGCCACUAUACGUCGAGUGAUGUUCGAGCCAAGAUGUCGUUACGUUUAUAAUAGGACCGGGUCAAUGGAUU [theeternabot_sameState_KL_Trp_B_19] | 512
AGCAUUAUCAGAAGGAGCGUGUAUAAUUCAAGAGAAUUGUUUUCGAGUGAUGUUCGUAAUACACAGGUAGGUCGCUGAUAUAGCA [JR_ExcArginiB_Sub001] | 258
UGUACCGAGUCAGGAUAUGGCGUCGAAAGACGAAUUCUAGUGAUGUUAGGGAUCUGCGAAAGCAGUCCAGAAGGGACUUGGUACU [FmnBS 26 U36] | 439
UCUGUUGUAUAUGAUACCAGCAGUGAGAGACAGGAAGUAUAGUGAUGUUAUAUGAGAGAAUGCCCUUGGCAGCGUGUGCGGUUGG [SSTheophylB.W] | 158
AACGCUGGAUGAAUAACAUCUAGCGAAAUUCGAGGACCGGUACGGCCGCCACUCGAGCUAACUGCGAGUGAUGUUCGAUAAUAAA [Mat - Mod of OpenEnded 3 - D5] | 466
UCUGUGUCCGCGGCCGCCACUCGGGACUAAGUGAUGUUUAGUCCUUCAGAAUAAAGAAGUGAUGAGAGGACCGGGCGAUCGCACC [theeternabot_sameState_KL_Trp_B_2] | 81.9

With K4 kissing-loop RNA reporter as the test system, provide measured apparent KD of K4 kissing-loop reporter for this sequence: UGAUUGGCGAAAGUAGUGAUGUUACGAAUAUAGGAUAUUAGAGGAAUAAGAAGGAUAAGGGAGAAAUAGGUAAAUUGUUGGUUGG [whbob_SS_FMNA__2th170] 79.7

Enter recorded apparent KD of K4 kissing-loop reporter with K4 kissing-loop RNA reporter for UCCUAGACUUAGCUAGGUAUAUAAUACGAUACCAGUCUAGAGAUAGACCCUUGGCAGCGUAGGCAGUGAUGUUGCCACUAGCUGA [Theo B SS t7a] here. 110

Fill: apparent KD of K4 kissing-loop reporter (K4 kissing-loop RNA reporter) for this sequence CGCUUUGCGUCCGGUAGUGAUGUUACCAAGCGAGGACCGGUACGGCCGCCACUCGAGUGACAGACGUACUGGUAUCACCCGCUUU 229

###

# apparent KD of K4 kissing-loop reporter values compiled below
system: K4 kissing-loop RNA reporter; experiment: apparent KD of K4 kissing-loop reporter; higher = weaker reporter binding; conditions: Eterna round: R107; input ligand: FMN 200 uM;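 further: bound reporter read as fluorescence of individual clusters on recovered sequencing chips by microscopy, with normalized cluster intensities fitted with a binding model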
Value expressed in nM; do not type the unit.

Take a look at these entries with their results.
AAACGUUGGUGCGAUACCAGCUGAUCGGAAACGAUCUUGCUGGAGUGAUGUUCCAGGAAAAGCCCUUGGCAGCGCACCGACGAAA [MAT - Same State Theophlline B - Mod of Eli - D26] | 950
ACUGUACCGGGAAGGAGCGUGAAUGAGAAUGGAUAUAGUGAUGUUAUGUAUACGAACGAAUCGCAGGUAGGUCGCCCGGAUCCCU [SSArgB.aC] | 617
CCUGCUACGUAAGGAUAUGGAAAUGAGUGAUGUUUAGAGAUAUGGUCCAGGUUUAGUCAUCAUAGACCAGAAGGUACAUCGGGCG [theeternabot_exclusion_KL_FMN_B_8] | 825
AAGUGUGUGGCGGCCGCCACUAGAAUCCAGUGAUGUUGGAGAUAUCUCGUAAGAGAUAUCCGCCAUAGGACCGGGCCAUAUAGAA [Same State - Tryptophan B (Freestyle 15)] | 981
AAGGUCACUGCUACAGUGAUGUUGUGGGAGCAGGAUAUGCAGAAAUGCAGAAGGGCUCGCUCCAGGUGACCGAAUGAAACAUUCA [whbob_SS_FMNA__2th175] | 1070
AUGCUUAUAAUAACACUAUAUACAACUGAAGGAGCGACAAUAAAGUCAGGUAGGUCGCAGAAUAAAUGAGUGAUGUUCAUUUUUA [JR_ExcArginiA_Sub010] | 113

Read off the recorded apparent KD of K4 kissing-loop reporter for AUUUAAUUAACUGAUACCAGACUUUUUGUUUUGAUAAUUACUAGUGAUGUUAGUGUUUCUGUCCCUUGGCAGCAGAAUCUACUUA [JR_ExcTheophyB_Sub018] 145

Please give the documented apparent KD of K4 kissing-loop reporter of AAUGUAUACUGAAGGAGCGAGUAGUGGAAACAUAAACUCAAUGCGAGUGAUGUUCGCAGUACUCAGGUAGGUCGCAGUAAUGGUA [Exclusion Arginine B Gf 8] 522

Identify apparent KD of K4 kissing-loop reporter associated with the sequence AUUAAUAUCACGGCCGCCACUGAAUAUUGUUUUUAUAUUUAGAAUAAUUGCCAGUGAUGUUGGAUCAGGACCGGGUGAGUUUAUA [JR_SSTryptoB_Sub007] 544

Let me know recorded apparent KD of K4 kissing-loop reporter for GGAUCCACCAGUGAUGUUGGAGAAAACUCCAAGGAUAUGACGAAAGUCAGAAGGUGGUAGACUGGACAAAGUCCGGUGGGAUCCA [FmnA10 G78] , thanks. 661

Give the value of apparent KD of K4 kissing-loop reporter reported for the following: UGUGUUUACCUGACUCAGUGAUGUUGAGAAGGAGCGUGCGAACGCACAGGUAGGUCGCUCAACCUAAAUUCAGGUGAGCACUAAA 430

Please give the documented apparent KD of K4 kissing-loop reporter of UAAUAAUAAUGAUAAUAAUCAAGUGGUGGACGAGGACCGGUACGGCCGCCACUCGAAAAUGCAGUGAUGUUGUAAUACGGAUAAU [Exclusion - Tryptophan A (Freestyle 2)] 98.3
